Biological target: T1, polypeptide GC3pep (human)
T1 construct: also called membrane proximal polypeptide GC3pep
T1 peptide: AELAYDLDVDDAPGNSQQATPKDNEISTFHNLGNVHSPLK
Experiment: ELISA, GC3pep coated, antibody 1 nM;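 also: bound antibody detected with an HRP-conjugated secondary antibody and TMB substrate, reaction stopped with HCl, after 2 h binding at 37 °C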
MEASURE NAME: OD450 nm (OD450 nm)
# number only, unit OD450 nm dropped from output

Which OD450 nm is listed for F1.111.11 (antibody, human IgG1, kappa, V domains shown, human-murine chimeric antibody) VH: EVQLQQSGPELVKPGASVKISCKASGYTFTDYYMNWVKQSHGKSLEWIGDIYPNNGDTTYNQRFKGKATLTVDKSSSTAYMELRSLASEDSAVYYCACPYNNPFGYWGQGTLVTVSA VL: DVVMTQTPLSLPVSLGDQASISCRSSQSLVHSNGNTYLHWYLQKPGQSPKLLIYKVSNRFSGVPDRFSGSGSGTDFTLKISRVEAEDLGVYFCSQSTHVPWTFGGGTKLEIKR ? 0.06

Entry F1.92.17 (antibody, human IgG1, kappa, V domains shown, human-murine chimeric antibody) VH: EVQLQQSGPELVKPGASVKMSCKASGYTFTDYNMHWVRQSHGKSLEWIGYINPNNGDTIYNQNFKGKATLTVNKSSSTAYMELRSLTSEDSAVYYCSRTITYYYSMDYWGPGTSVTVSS VL: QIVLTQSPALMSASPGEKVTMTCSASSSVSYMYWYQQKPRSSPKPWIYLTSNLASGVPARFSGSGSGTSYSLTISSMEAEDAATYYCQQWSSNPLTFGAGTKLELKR : reported OD450 nm = ? 0.05

Query: OD450 nm; subject: F1.136.7 (antibody, human IgG1, kappa, V domains shown, human-murine chimeric antibody) VH: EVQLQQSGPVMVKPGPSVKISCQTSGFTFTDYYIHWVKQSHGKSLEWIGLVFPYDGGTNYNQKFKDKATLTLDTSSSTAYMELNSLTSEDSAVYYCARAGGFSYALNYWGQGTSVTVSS VL: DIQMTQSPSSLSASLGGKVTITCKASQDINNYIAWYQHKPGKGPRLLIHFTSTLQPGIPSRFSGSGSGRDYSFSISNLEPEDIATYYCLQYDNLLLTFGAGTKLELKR 0.04

From: patent US20260116991A1
